# protocol description: activity coefficient (dimensionless); of the first substance listed, at infinite dilution; xn = mol fraction of the nth substance listed
# conditions used: 378.15 K; 101 kPa; Liquid; Chromatography; x1 = 0
Listed here: items and their measured activity coefficient.

Below are worked cases with known answers.
1. CCCCCCCCCC [decane] + CCCCn1cc[n+](C)c1.COP(=O)([O-])OC; 84.7
2. Cc1ccccc1 [toluene] + CCCCn1cc[n+](C)c1.COP(=O)([O-])OC; 4.09
3. CCCC(=O)OC [methyl butanoate] + CCCCn1cc[n+](C)c1.COP(=O)([O-])OC; 5.17
4. CCCCCCCCCC [decane] + CCCCn1cc[n+](C)c1.CS(=O)(=O)[O-]; 340
5. Cc1ccccc1 [toluene] + CCCCn1cc[n+](C)c1.CS(=O)(=O)[O-]; 5.68

Look up activity coefficient for this compound: C#CCCCCCC [1-octyne] + CCCCn1cc[n+](C)c1.CS(=O)(=O)[O-]
19.5

Look up activity coefficient for this compound: c1ccccc1 [benzene] + CCCCn1cc[n+](C)c1.COP(=O)([O-])OC
2.49

Look up activity coefficient for this compound: CCCC(=O)OC [methyl butanoate] + CCCCn1cc[n+](C)c1.CS(=O)(=O)[O-]
7.39

Look up activity coefficient for this compound: CCCOCCC [dipropyl ether] + CCCCn1cc[n+](C)c1.[Cl-]
52.8
